Where do these numbers come from? They come from patent US20240209053A1.

- assay_system: ferroportin (Homo sapiens)
- Sequence (Q9NP59 whole entry): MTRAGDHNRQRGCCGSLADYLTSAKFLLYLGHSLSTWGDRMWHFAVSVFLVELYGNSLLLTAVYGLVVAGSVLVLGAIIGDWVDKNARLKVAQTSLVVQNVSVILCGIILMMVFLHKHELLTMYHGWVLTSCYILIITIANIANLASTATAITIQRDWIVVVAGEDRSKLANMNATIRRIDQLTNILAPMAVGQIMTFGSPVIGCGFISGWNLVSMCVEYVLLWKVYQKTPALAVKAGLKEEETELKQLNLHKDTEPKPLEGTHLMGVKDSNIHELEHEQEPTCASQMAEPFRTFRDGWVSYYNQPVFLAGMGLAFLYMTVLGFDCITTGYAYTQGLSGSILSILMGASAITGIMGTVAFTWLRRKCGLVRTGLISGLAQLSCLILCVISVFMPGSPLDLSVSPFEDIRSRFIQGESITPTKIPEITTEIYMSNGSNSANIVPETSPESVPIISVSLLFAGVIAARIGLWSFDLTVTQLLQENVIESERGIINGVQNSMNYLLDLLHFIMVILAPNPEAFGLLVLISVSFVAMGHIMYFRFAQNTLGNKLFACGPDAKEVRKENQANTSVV
- test_method_notes: T47D cell-based ferroportin internalization assay in presence of 0.5% mouse serum albumin (MSA)
- run_conditions: T47D cells
pIC50: −log10 of the molar value. Numbered stars: 1 amine (or outer) side, 2 acyl side, 3 side chain; on linkers, the order of the positions; unused ones are H or OH. Bridge positions count the residues as written; N and C are the ends. Square brackets hold non-standard residues; d marks the D form. Side chains are listed from the residue outwards. Peptide text beside a SMILES is read from it. * marks the point of attachment. Dip = N[C@H](C(=O)O)C(c1ccccc1)c1ccccc1; Hag = O=C([C@H](CCC=[*:3])N[*:1])[*:2]; Palmitoyl = CCCCCCCCCCCCCCCC(=O)*; β3hF = N[C@H](CC(=O)O)Cc1ccccc1; Isovaleryl = CC(C)CC(=O)*; Ahx = NCCCCCC(=O)O
Measured pIC50, listed per entry.

# compound, assay_system, pIC50
data = [
    ("CCCCCCCCCCCCCCCC(=O)NCCCCCC(=O)NCCCC[C@H](NC(=O)[C@@H]1CCC=CCC[C@H](NC(=O)CC(C)C)C(=O)N[C@@H]([C@@H](C)O)C(=O)N[C@@H](Cc2c[nH]cn2)C(=O)N[C@@H](C(c2ccccc2)c2ccccc2)C(=O)N2CCC[C@H]2C(=O)N[C@@H](C)C(=O)N[C@@H]([C@@H](C)CC)C(=O)N1)C(N)=O [Compd 18] (Isovaleryl-[Hag]TH[Dip]PAI[Hag]K([Ahx-Palmitoyl])-NH2; staple 1-8)", "ferroportin (Homo sapiens)", "7.00 to 8.00"),
    ("CCCCCCCCCCCCCCCC(=O)NCCCCCC(=O)NCCCC[C@H](NC(=O)C[C@H](Cc1ccccc1)NC(=O)[C@@H]1CCC=CCC[C@H](NC(=O)CC(C)C)C(=O)N[C@@H]([C@@H](C)O)C(=O)N[C@@H](Cc2c[nH]cn2)C(=O)N[C@@H](C(c2ccccc2)c2ccccc2)C(=O)N2CCC[C@H]2C(=O)N[C@@H](C)C(=O)N[C@@H](C)C(=O)N1)C(=O)N[C@H](CCCCN)C(N)=O [Compd 45] (Isovaleryl-[Hag]TH[Dip]PAA[Hag][β3hF]K([Ahx-Palmitoyl])[dK]-NH2; staple 1-8)", "ferroportin (Homo sapiens)", "7.00 to 8.00"),
]
